test system: CAKI-1; test: AUC of dose-response viability curve, drug alone (arbitrary (AUC of normalised viability)); higher = less growth inhibition; conditions: treatment: drug alone; 5 days
Exam item: assign 1 to entries whose AUC of dose-response viability curve is below 3 and -1 to entries at or above 3. Note that a value of exactly 3 receives -1.

Nc1ncnc2c1c(-c1cnc3[nH]ccc3c1)nn2C1CCCC1    1
O=C(Nc1ccc(OC(F)(F)F)cc1)c1sccc1NCc1ccnc2ccccc12    -1
CCCS(=O)(=O)Nc1ccc(F)c(C(=O)c2c[nH]c3ncc(-c4ccc(Cl)cc4)cc23)c1F    -1
CN1CCN(c2ccc([N+](=O)[O-])c3no[n+]([O-])c23)CC1    -1
CCC(=O)N1CCN(c2ccc(-n3c(=O)ccc4cnc5ccc(-c6cnc7ccccc7c6)cc5c43)cc2C(F)(F)F)CC1    1
CCc1cc(Nc2nccc(-c3c(-c4ccc(OC)c(C(=O)Nc5c(F)cccc5F)c4)nc4ccccn34)n2)c(OC)cc1N1CCC(N2CCN(S(C)(=O)=O)CC2)CC1    -1
COc1ccc2c(OCc3nnc4ccc(-c5ccccc5)nn34)ccnc2c1    1
COc1cc(Nc2ncc(F)c(Nc3ccc4c(n3)NC(=O)C(C)(C)O4)n2)cc(OC)c1OC.O=S(=O)(O)c1ccccc1    1
Oc1ccc(-c2nc(-c3ccc(F)cc3)c(-c3ccncc3)[nH]2)cc1    -1
CCn1c(-c2nonc2N)nc2c(C#CC(C)(C)O)ncc(OC[C@H]3CCCNC3)c21    1
O=c1c(O)c(-c2ccc(O)c(O)c2)oc2cc(O)cc(O)c12 [Quercetin (Sophoretin)]    -1
Cc1ccc(NC(=O)c2cccc(C(C)(C)C#N)c2)cc1Nc1ccc2ncn(C)c(=O)c2c1    -1

Taken from the supplement of paper PMC8149375.
